system: HL-60(TB) leukemia; assay: NCI-60 one-dose screen, 48 h (100 = growth as untreated, 0 = no growth, -100 = all killed); conditions: 10 µM unless noted
This is part of a sample that, as a whole, favours compounds with a hit. Of some 83,000 tested, about 20% had one in any assay.
growth strictly less than 40% = Y. Otherwise N.

| COMPOUND | ANSWER_LABEL |
| --- | --- |
| O=C1CCC2(O)[C@@H]3Cc4ccc(O)c5c4[C@]2(CCN3Cc2ccoc2)C1O5 (some centres not stated) | N |
| COC(=O)[C@@H](C)C[C@H](Cc1ccccc1)NC(=O)c1csc([C@@H](C[C@H](C(C)C)N(C)C(=O)[C@@H](NC(=O)[C@H]2CCCCN2C)C2CC2)OC(C)=O)n1 | Y |
| CCN(CCO)C(Cc1ccccc1)c1ccccc1 (configuration not stated) | N |
| O=C(O)C(O)C(O)C1[O][Sb]([c]2ccc([N+](=O)[O-])cc2)[O]C1CO (configuration not stated) | N |
| CC(C)=CCc1c(O)c(C(=O)CC(C)C)c(O)c2c(-c3ccccc3)cc(=O)oc12 | Y |
| CC(=O)O[C@H]1CC[C@@]2(C)C(=CC[C@H]3[C@@H]4C[C@@H](N5CC5)[C@H](C(C)=O)[C@@]4(C)CC[C@@H]32)C1 | N |
| CCCCCCCCOC(=O)CCN1CC1 | N |
| Cc1cc(C)cc(Nc2nc3c(s2)CC[C@@]2(C)C3=CC[C@@H]3[C@@H]2CC[C@]2(C)C(=O)CC[C@@H]32)c1 | N |
| O=C1NC(=O)C(=Cc2cn(CCCCCCn3c4ccccc4c(=O)c4ccccc43)c3ccccc23)C(=O)N1 | N |
| CC(=O)c1ccc(C(=O)NCC2CCC3(CC2)OOC2(CCCCC2)OO3)cc1 | Y |
| OCc1ccc2c(c1)OCO2 | N |
| CN[C@@]1(c2ccccc2Cl)CCCC[C@@H]1NCC1CCCO1 (some centres not stated) | N |
| C/C(=C\c1ccn(-c2ccc(N)cc2C(F)(F)F)n1)[C@@H]1C[C@@H]2O[C@]2(C)CCC[C@H](C)[C@H](O)[C@@H](C)C(=O)C(C)(C)[C@@H](O)CC(=O)O1 | Y |
| CCC(C)(C)[C@H](NC(=O)[C@H]1CCCCN1C)C(=O)N(C)[C@H](C[C@@H](OC(C)=O)c1nc(C(=O)N[C@@H](Cc2ccccc2)C[C@H](C)C(=O)O)cs1)C(C)C | Y |
| CO[C@H](C(=O)O)[C@@H]1Cc2cc3cc(OC4CC(OC5CC(O)C(O)C(C)O5)C(O)C(C)O4)c(C)c(O)c3c(O)c2C(=O)[C@H]1OC1CC(OC2CC(OC3CC(C)(O)C(O)C(C)O3)C(O)C(C)O2)C(O)C(C)O1 (some centres not stated) | N |
| CCCCN1CCCC[C@@H]1C(=O)N[C@H](C(=O)N(C)[C@H](C[C@@H](OC(C)=O)c1nc(C(=O)NC2CCC(C(=O)OC)CC2)cs1)C(C)C)C(C)C (some centres not stated) | Y |
| N#C[S-].[Au+].c1ccc(CN2[CH-]N(Cc3ccccc3)C(c3ccccc3)=C2c2ccccc2)cc1 | Y |
| COc1cc(/C=N/C2=C(C#N)C(c3ccco3)c3c(c4cc(C)ccc4oc3=O)O2)cc(OC)c1OC (configuration not stated) | N |
| O=C(Nc1ccc(Br)cc1)c1cc(Br)cc(Br)c1O | N |
| COC(=O)CC[C@H](Cc1ccccc1)NC(=O)c1csc([C@@H](C[C@H](C(C)C)N(C)C(=O)[C@@H](NC(=O)[C@H]2CCCCN2C)C(C)C)OC(C)=O)n1 | Y |
| CC(CC1CCCCC1)NCc1ccccc1 (configuration not stated) | N |
| CC(=O)O[C@H]1C(=O)[C@@]2(C)[C@H]([C@H](OC(=O)c3ccccc3)[C@]3(O)C[C@H](OC(=O)[C@H](OC(=O)OC[C@H]4COC(C)(C)O4)[C@@H](NC(=O)c4ccccc4)c4ccccc4)C(C)=C1C3(C)C)[C@]1(OC(C)=O)CO[C@@H]1C[C@@H]2O | Y |

====

system: UACC-257 melanoma; assay: NCI-60 one-dose screen, 48 h; details: 10 µM unless noted
This is part of a sample that, as a whole, favours compounds with a hit. Of some 83,000 tested, about 20% had one in any assay. The source made the active and inactive calls. Rule for the calls: active = growth percent below 10; inactive = the rest.
Classes used: TRUE (active), FALSE (inactive)

| COMPOUND | ANSWER_LABEL |
| --- | --- |
| C#Cc1ccc2c(c1)C(c1ccccc1)=NCC(=O)N2C | FALSE |
| COC(=O)[C@@H](C)C[C@H](Cc1ccccc1)NC(=O)c1csc([C@@H](C[C@H](C(C)C)N(C)C(=O)[C@@H](NC(=O)[C@H]2CCCCN2C)C2CCCCC2)OC(C)=O)n1 | FALSE |
| Cc1ccc(S(=O)(=O)C(Cl)(Cl)Cl)cc1 | FALSE |
| CN1C(=O)C23CC4(C56CC78SSC(CO)(C(=O)N7C5Nc5ccccc56)N(C)C8=O)c5ccccc5NC4N2C(=O)C1(CO)SS3 (configuration not stated) | TRUE |
| COC(=O)[C@@H](C)C[C@H](Cc1ccccc1)NC(=O)c1nc([C@@H](C[C@H](C(C)C)N(C)C(=O)[C@@H](NC(=O)[C@H]2C[C@H](O)CCN2C)C(C)C)OC(C)=O)sc1C(C)C | FALSE |
| CCCCCCCCCCCCCCCCCC1OC[C@@H](COC(=O)O[C@@H](C(=O)O[C@H]2C[C@@]3(O)[C@@H](OC(=O)c4ccccc4)[C@@H]4[C@]5(OC(C)=O)CO[C@@H]5C[C@H](O)[C@@]4(C)C(=O)[C@H](OC(C)=O)C(=C2C)C3(C)C)[C@@H](NC(=O)c2ccccc2)c2ccccc2)O1 (some centres not stated) | FALSE |
| C[C@]12CCc3nc(Nc4ccccc4F)sc3C1=CC[C@@H]1[C@@H]2CC[C@]2(C)C(=O)CC[C@@H]12 | FALSE |
| CC12CC(=O)C3(SC#N)C(CCC4=CC(=O)CCC43C)C1CCC2=O (configuration not stated) | FALSE |
| N/C(=N/N=C/c1ccncc1)N[N+](=O)[O-] | FALSE |
| ClCCN(CCCl)c1ccc(-n2cnc3c(Cl)ncnc32)cc1 | FALSE |
| CSc1nc(Cl)cc(N2CC2)n1 | FALSE |
| C=CCCCN=C=S | FALSE |
| Fc1cccc(NCOOC2(OOCNc3cccc(F)c3)CCCCC2)c1 | FALSE |
| C1CCC2(CC1)OOCNCOO2 | FALSE |
| COC(=O)[C@@H](C[C@H](Cc1ccccc1)NC(=O)c1csc([C@@H](C[C@H](C(C)C)N(C)C(=O)[C@@H](NC(=O)[C@H]2CCCCN2C)C(C)C)OC(C)=O)n1)NC(=O)OCc1ccccc1 | TRUE |
| COc1ccc(/C=C\c2cc(OC)c(OC)c(OC)c2)cc1OCC(=O)Nc1nc2ccc(F)cc2s1 | FALSE |
| COP(=S)(N1CC1)N1CC1 | FALSE |
| COC(=O)[C@H](C[C@H](Cc1ccccc1)NC(=O)c1csc([C@@H](C[C@H](C(C)C)N(C)C(=O)[C@@H](NC(=O)[C@H]2CCCCN2C)C(C)C)OC(C)=O)n1)NC(=O)OCc1ccccc1 | FALSE |
| O=C(CC1(O)C(=O)N(Cc2ccccc2)c2ccc(F)cc21)c1ccc(C(=O)NCC2CCC3(CC2)OOC2(CCCCC2)OO3)cc1 (configuration not stated) | TRUE |
| CC[S][Hg][Cl] | FALSE |
| COC(=O)[C@@H](C)C[C@H](Cc1ccccc1)NC(=O)c1csc([C@@H](C[C@H](C(C)C)N(C)C(=O)[C@@H](NC(=O)CN(C)C)C2CC2)OC(C)=O)n1 | FALSE |
| CN1CC(CNC(=O)OCc2ccccc2)CC2c3cccc4c3c(cn4C)CC21 (configuration not stated) | TRUE |
| COc1cc(/C=C\c2cc(OC)c(OC)c(OC)c2)cc(NS(=O)(=O)c2cccc(Cl)c2)c1OC | FALSE |
| O=[N+]([O-])c1c(Br)sc(Br)c1[N+](=O)[O-] | TRUE |
| COc1ccc2c(c1)c(-c1nc(-c3c[nH]c4ncccc34)cs1)cn2CCCCN1CCCCC1 | TRUE |
| COc1cc2c(=O)n(C3CCCCCCC3)c3c4cc[nH]c4ncc3c2cc1OC | FALSE |
| CC(C)OC(=O)[C@H](C)NP(=O)(Oc1ccccc1)C1CCCN(O)C1=O (some centres not stated) | FALSE |

====

system: PC-3 prostate; assay: NCI-60 one-dose screen, 48 h (100 = growth as untreated, 0 = no growth, -100 = all killed); details: 10 µM unless noted
Compounds without any hit were thinned out: in the full panel of roughly 83,000, 20% have a hit.
growth strictly less than 30% = criterion met. Otherwise criterion not met.

| MOLECULE | ASSAY_TARGET | ANSWER_LABEL |
| --- | --- | --- |
| COC(=O)[C@@H](C)C[C@H](Cc1ccccc1)NC(=O)c1csc([C@@H](C[C@H](C(C)C)N(C)C(=O)[C@@H](NC(=O)C23CC(NC(C)=O)(C2)C3)C2CC2)OC(C)=O)n1 | PC-3 prostate | criterion not met |
| O=C1C=C2C(=CCOC2O)O1 (stereo unspecified) | PC-3 prostate | criterion not met |
| O=C(CCCCCCC(=O)Nc1ccc(N(CCCl)CCCl)cc1)NO | PC-3 prostate | criterion not met |
| CC(=O)O[C@@H]1CC[C@]2(C)[C@H]3CC[C@]4(C)C(=O)CC[C@H]4[C@@H]3C[C@@H]3SC(N)=N[C@@]32C1 | PC-3 prostate | criterion not met |
| CC(=O)Oc1ccccc1C(=O)NCCC[Se]C#N | PC-3 prostate | criterion met |
| C=CC1=C[C@@H]2[C@@H]3O[C@]4(CC[C@H](O4)[C@@H](C)C[C@@H](O)C3=O)C[C@H](O)C3=NCC[C@@]32CC1 | PC-3 prostate | criterion met |
